STUDY_SYSTEM: Steroid 5-alpha-reductase (Rattus norvegicus, UniProt P24008+P31214)
Sequence (P24008 whole entry): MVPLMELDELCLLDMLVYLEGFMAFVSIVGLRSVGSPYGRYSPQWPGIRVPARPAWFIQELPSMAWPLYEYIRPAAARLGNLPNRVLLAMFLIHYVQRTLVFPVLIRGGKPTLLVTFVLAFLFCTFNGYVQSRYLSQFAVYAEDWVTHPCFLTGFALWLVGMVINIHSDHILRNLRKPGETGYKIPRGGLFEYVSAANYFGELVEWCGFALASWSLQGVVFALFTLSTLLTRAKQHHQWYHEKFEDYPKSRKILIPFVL
Sequence (P31214 whole entry): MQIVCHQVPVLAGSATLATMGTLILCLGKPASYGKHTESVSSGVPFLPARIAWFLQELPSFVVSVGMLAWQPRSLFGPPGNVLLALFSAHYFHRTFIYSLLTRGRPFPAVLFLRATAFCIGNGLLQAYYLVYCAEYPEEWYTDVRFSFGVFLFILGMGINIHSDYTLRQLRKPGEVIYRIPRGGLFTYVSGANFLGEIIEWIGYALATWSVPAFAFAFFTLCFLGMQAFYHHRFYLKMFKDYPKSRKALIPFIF
METHOD: In vitro inhibitory activity against rat prostatic steroid 5-alpha-reductase
Format: protein assay
Provide the recorded IC50 for the entries that follow.
One number for each entry, in nM.

For orientation, consider the following solved cases.
[
  {
    "COMPOUND": "CC(C)N(C(=O)[C@H]1CC[C@H]2[C@@H]3CC[C@@H]4N(C)C(=O)CC[C@]4(C)[C@H]3CC[C@]12C)C(C)C",
    "UNITS": "nM",
    "IC50": 1000
  },
  {
    "COMPOUND": "CCC(C)C(=O)[C@H]1CC[C@H]2[C@@H]3CCC4NC(=O)C=C[C@]4(C)[C@H]3CC[C@]12C (some centres not stated)",
    "UNITS": "nM",
    "IC50": 50
  },
  {
    "COMPOUND": "CCN(CC)C(=O)/C=C1\\CC[C@H]2[C@@H]3CCC4N(C)C(=O)CC[C@]4(C)[C@H]3CC[C@]12C (some centres not stated)",
    "UNITS": "nM",
    "IC50": 2.5
  },
  {
    "COMPOUND": "CC(CCC(=O)[O-])[C@H]1CC[C@H]2[C@@H]3CCC4N(C)C(=O)CC[C@]4(C)[C@H]3CC[C@]12C.[Na+] (some centres not stated)",
    "UNITS": "nM",
    "IC50": 3.6
  },
  {
    "COMPOUND": "CN1C(=O)C=C[C@@]2(C)C1CC[C@H]1[C@@H]3CC[C@H](C(=O)NC(C)(C)C)[C@@]3(C)CC[C@@H]12 (some centres not stated)",
    "UNITS": "nM",
    "IC50": 13
  }
]

Look up IC50 for the entries below, preserving their order.
1. CCN(CC)C(=O)[C@H]1CC[C@H]2[C@@H]3CC[C@H]4N(C)C(=O)CC[C@]4(C)[C@H]3CC[C@]12C
2. CCNC(=O)[C@H]1CC[C@H]2[C@@H]3CCC4N(C)C(=O)CC[C@]4(C)[C@H]3CC[C@]12C (some centres not stated)

## Output
11
12

Look up IC50 for the entries below, preserving their order.
1. CC(C)(C)NC(=O)[C@H]1CC[C@H]2[C@@H]3CC[C@H]4NC(=O)C=C[C@]4(C)[C@H]3CC[C@]12C [FINASTERIDE]
2. CC(C(=O)[O-])[C@H]1CC[C@H]2[C@@H]3CCC4N(C)C(=O)CC[C@]4(C)[C@H]3CC[C@]12C.[Na+] (some centres not stated)
3. C[C@]12C=CC(=O)NC1CC[C@@H]1[C@@H]2CC[C@@]2(C)[C@H]1CC[C@@]21CCCO1 (some centres not stated)

## Output
1. 6.8
2. 1.7
3. 430

## Input I am curious: what IC50 value has been reported for CN1C(=O)CC[C@@]2(C)C1CC[C@@H]1[C@@H]2CC[C@@]2(C)[C@H]1CC[C@@]21CCCO1 (some centres not stated) ?
## Output 37
